All values here come from paper PMC8512844.

# experiment: Long-term storage stability of aqueous solutions (CPMP/ICH/2736/99), HPLC-DAD relative quantification
# Type: physicochemical
# experimental_parameters: aqueous solution of the pure compound; pure solution, temperature above 30 °C; read-out: t1/2 (time to reduce the concentration to half of the initial value) (converted)
readout: half-life at 113 mg/L

Specify reported half-life at 113 mg/L for the molecule shown: C/C=C1/[C@H](O[C@@H]2O[C@H](CO)[C@@H](O)[C@H](O)[C@H]2O)OC=C(C(=O)OC)[C@H]1CC(=O)OCCc1ccc(O)c(O)c1 [OL, oleuropein] ~72 h
